# tested_system: Glucocorticoid receptor (Homo sapiens)
# Sequence (P04150 whole entry): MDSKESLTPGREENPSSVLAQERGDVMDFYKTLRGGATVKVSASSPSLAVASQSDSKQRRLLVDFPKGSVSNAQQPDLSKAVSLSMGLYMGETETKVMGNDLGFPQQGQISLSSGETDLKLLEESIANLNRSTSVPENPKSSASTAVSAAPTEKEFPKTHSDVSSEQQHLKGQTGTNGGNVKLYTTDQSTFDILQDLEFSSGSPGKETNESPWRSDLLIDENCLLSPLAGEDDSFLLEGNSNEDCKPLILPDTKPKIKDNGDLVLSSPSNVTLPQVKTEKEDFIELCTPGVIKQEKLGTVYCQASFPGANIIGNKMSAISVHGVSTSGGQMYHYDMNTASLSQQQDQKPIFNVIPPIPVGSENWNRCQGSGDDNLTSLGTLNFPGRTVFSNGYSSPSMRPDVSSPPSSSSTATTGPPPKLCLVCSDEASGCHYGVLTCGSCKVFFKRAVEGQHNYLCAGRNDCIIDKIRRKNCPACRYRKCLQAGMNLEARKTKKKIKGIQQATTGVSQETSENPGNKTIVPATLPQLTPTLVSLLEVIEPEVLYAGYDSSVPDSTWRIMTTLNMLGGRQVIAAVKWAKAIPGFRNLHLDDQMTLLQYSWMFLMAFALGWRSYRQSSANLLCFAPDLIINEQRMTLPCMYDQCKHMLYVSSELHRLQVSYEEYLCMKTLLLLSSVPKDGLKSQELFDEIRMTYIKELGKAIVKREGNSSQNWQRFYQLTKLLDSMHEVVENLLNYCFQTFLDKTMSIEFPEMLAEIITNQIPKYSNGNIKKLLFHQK
# method_notes: Agonist activity at glucocorticoid receptor (unknown origin) by NH Pro assay
Reported EC50 values are given for each entry in this list.

Some compounds with recorded EC50:
COc1cc(CNC(=O)[C@@]2(Cc3ccccc3)OC(=O)N([C@@H]3CCc4ccccc43)C2=O)cc(OC)c1 ... > 20 µM
CC(=O)S[C@@H]1CC2=CC(=O)CC[C@]2(C)[C@H]2CC[C@@]3(C)[C@@H](CC[C@@]34CCC(=O)O4)[C@H]12 [SPIRONOLACTONE] ... > 20 µM

In the following, a different compound is considered.
C[C@H](c1ccc(F)cc1)N1C(=O)O[C@](Cc2ccc(F)cc2)(C(=O)NCc2ccc(Cl)c(Cl)c2)C1=O yielded EC50 of > 20 µM

---

Listing: half-life of selected compounds
# method_notes: Half life in rat at 1 mg/kg, iv and 1 mg/lg, po
# Type: ADME, organism-based
# Design: dose 1 mg/kg, route oral
# condition_context: in vivo
Report the figure in h without appending any unit label.

Given item COc1cc(CNC(=O)[C@@]2(Cc3ccccc3)OC(=O)N([C@H](C)c3ccccc3)C2=O)cc(OC)c1 , the value recorded as its half-life is 1.2

The recorded half-life for entry C[C@H](c1ccc(F)cc1)N1C(=O)O[C@](Cc2ccc(F)cc2)(C(=O)NCc2ccc(Cl)c(Cl)c2)C1=O equals 2.3

Summary for this compound, COc1cc(CNC(=O)[C@@]2(Cc3ccccc3)OC(=O)N([C@@H]3CCc4ccccc43)C2=O)cc(OC)c1 : half-life is 2.5

---

# method_notes: Oral bioavailability in rat at 1 mg/kg
# Type: ADME, organism-based
# condition_context: in vivo
Catalogue of bioavailability readings, one per entry.
Report as a plain number; the unit % is understood.

So, COc1cc(CNC(=O)[C@@]2(Cc3ccccc3)OC(=O)N([C@H](C)c3ccccc3)C2=O)cc(OC)c1 ? Its bioavailability was 7

Sure, the documented bioavailability for C[C@H](c1ccc(F)cc1)N1C(=O)O[C@](Cc2ccc(F)cc2)(C(=O)NCc2ccc(Cl)c(Cl)c2)C1=O is 63

Noted for COc1cc(CNC(=O)[C@@]2(Cc3ccccc3)OC(=O)N([C@@H]3CCc4ccccc43)C2=O)cc(OC)c1 : its bioavailability reads 28

---

# tested_system: Estrogen receptor (Homo sapiens, UniProt P03372)
# Sequence (P03372 whole entry): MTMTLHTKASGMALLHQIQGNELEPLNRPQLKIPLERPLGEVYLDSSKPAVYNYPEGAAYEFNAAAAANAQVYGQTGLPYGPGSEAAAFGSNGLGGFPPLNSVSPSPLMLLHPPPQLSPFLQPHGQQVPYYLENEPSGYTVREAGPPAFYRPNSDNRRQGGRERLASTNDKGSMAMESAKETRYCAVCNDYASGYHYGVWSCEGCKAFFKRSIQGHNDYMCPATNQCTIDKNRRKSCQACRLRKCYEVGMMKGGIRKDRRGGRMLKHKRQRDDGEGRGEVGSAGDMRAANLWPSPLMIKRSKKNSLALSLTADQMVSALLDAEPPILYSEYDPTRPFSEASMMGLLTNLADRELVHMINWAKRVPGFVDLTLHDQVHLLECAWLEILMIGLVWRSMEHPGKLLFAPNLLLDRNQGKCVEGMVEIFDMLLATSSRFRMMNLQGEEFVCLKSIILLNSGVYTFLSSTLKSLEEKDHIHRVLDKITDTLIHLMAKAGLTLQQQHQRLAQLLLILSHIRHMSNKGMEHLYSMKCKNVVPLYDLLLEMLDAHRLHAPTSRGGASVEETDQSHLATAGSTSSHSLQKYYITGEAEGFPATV
reported_metric: IC50 (µM)
Provide the reading as a plain figure in µM.

The compound C[C@H](c1ccc(F)cc1)N1C(=O)O[C@](Cc2ccc(F)cc2)(C(=O)NCc2ccc(Cl)c(Cl)c2)C1=O , tested on Estrogen receptor (Homo sapiens, UniProt P03372), showed IC50 of 7.3

---

pIC50: −log10 of the molar value.
The following compounds have recorded pIC50 on Mineralocorticoid receptor (Homo sapiens, UniProt P08235).
Sequence (P08235 whole entry): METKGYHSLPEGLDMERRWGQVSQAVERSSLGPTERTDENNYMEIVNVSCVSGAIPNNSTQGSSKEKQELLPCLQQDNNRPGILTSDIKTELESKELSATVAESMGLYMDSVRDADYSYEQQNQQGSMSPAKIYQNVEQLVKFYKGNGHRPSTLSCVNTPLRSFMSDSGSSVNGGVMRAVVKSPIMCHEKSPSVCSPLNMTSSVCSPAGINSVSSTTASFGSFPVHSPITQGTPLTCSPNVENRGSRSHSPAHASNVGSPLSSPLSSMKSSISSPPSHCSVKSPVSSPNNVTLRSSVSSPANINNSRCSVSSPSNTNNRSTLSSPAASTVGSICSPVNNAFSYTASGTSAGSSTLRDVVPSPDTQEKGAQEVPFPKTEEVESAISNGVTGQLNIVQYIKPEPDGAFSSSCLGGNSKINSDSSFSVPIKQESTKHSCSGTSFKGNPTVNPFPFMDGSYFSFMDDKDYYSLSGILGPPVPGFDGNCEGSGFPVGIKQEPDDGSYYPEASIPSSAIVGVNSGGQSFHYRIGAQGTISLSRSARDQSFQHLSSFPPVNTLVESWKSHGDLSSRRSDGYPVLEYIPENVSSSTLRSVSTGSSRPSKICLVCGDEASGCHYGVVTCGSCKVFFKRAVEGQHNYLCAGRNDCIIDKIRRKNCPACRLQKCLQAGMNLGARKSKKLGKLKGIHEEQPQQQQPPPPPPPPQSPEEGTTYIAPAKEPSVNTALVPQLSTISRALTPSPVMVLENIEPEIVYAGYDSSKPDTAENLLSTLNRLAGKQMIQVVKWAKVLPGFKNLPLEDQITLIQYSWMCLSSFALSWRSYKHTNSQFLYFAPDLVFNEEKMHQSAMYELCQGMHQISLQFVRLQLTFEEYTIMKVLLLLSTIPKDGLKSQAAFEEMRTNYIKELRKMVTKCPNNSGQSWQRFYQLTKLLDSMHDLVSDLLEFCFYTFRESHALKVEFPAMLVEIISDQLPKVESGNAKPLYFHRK

Examples with their reported pIC50 follow.
COc1cc(CNC(=O)[C@]2(Cc3ccccc3)C(=O)N(Cc3ccccc3)C(=O)N2C)cc(OC)c1 ... < 4.40
CCn1cc(CNC(=O)[C@@]2(Cc3ccccc3)OC(=O)N([C@H](C)c3ccccc3)C2=O)cn1 ... < 5.00

Shift focus to the following entry.
Sure, the documented pIC50 for O=C1O[C@](Cc2ccccc2)(C(=O)NCc2nccs2)C(=O)N1Cc1ccccc1 is < 4.40

Source of measurements: ChEMBL document CHEMBL2407028
